Entries annotated with measured Ki
TARGET OR SYSTEM: c-Met (Homo sapiens)
Sequence (P08581 25-1390): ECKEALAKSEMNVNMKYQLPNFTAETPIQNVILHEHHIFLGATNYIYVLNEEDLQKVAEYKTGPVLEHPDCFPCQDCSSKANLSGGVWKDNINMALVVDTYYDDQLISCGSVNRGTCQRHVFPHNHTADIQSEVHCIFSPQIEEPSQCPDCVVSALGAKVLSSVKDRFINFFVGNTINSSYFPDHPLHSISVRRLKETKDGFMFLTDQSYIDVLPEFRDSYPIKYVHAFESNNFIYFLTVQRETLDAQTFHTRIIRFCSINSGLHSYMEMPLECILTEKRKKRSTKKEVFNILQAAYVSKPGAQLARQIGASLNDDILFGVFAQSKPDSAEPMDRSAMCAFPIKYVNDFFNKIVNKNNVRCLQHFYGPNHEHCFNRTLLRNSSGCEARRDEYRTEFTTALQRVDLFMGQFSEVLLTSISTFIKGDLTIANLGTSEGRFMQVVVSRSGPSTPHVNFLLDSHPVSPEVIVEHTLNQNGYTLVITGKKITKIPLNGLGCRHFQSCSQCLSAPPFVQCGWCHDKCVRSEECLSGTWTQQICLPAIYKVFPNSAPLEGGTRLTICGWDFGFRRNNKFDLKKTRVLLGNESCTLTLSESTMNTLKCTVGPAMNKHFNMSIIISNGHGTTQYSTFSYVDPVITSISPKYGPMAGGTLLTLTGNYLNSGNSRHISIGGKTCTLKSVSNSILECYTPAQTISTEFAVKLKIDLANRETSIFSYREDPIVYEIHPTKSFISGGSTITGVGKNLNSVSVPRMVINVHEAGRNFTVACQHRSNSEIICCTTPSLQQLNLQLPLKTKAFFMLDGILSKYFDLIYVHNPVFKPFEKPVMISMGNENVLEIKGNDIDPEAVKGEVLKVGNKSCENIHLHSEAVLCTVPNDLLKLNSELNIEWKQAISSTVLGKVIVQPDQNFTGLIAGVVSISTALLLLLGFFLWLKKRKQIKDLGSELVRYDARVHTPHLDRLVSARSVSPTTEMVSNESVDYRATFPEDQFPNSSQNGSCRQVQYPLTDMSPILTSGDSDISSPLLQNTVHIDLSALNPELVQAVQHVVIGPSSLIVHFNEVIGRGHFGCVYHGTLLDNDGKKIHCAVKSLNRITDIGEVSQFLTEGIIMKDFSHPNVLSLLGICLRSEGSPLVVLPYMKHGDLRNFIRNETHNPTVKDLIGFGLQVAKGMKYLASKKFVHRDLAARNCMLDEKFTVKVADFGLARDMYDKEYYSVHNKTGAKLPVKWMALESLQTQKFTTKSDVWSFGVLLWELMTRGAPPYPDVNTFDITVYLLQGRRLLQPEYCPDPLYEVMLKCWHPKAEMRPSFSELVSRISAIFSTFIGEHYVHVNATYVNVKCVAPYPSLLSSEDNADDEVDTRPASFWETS

Some solved cases for reference:
ENTRY SMILES: C[C@@H](NC(=O)c1cccnc1N)c1nnc2ccc(Nc3cccc(Cl)c3)nn12
Ki: 250 to 2500 nM

ENTRY SMILES: Clc1cccc(Nc2ccc3nnc(CNCc4cccnc4)n3n2)c1
Ki: > 2500 nM

ENTRY SMILES: C[C@@H](NC(=O)c1nc(C#CC(C)(C)C)cnc1N)c1nnc2ccc(Nc3cccc(Cl)c3)nn12
Ki: 250 to 2500 nM

ENTRY SMILES: CNCc1ccc(-c2cnc(N)c(C(=O)N[C@H](C)c3nnc4ccc(Nc5cccc(Cl)c5)nn34)n2)cc1
Ki: ≤ 250 nM

ENTRY SMILES: O=C(Cc1nnc2ccc(Nc3cccc(Cl)c3)nn12)Nc1cnccn1
Ki: > 2500 nM

ENTRY SMILES: O=C(Cc1nnc2ccc(Nc3cccc(Cl)c3)nn12)NCc1cccnc1
Ki: > 2500 nM

Given CCOc1ccc2nnc([C@@H](C)NC(=O)c3nc(-c4ccc(CN5CCCC5)cc4)cnc3N)n2n1 , state its recorded Ki.
250 to 2500 nM

====

Entries annotated with measured Ki
TARGET OR SYSTEM: c-Met (Homo sapiens)

Some solved cases for reference:
ENTRY SMILES: C[C@@H](NC(=O)c1nccnc1N)c1nnc2ccc(Nc3cccc(Cl)c3)nn12
Ki: ≤ 250 nM
//
ENTRY SMILES: Cc1nn2c([C@@H](C)NC(=O)c3nc(-c4ccccc4)cnc3N)nnc2s1
Ki: 250 to 2500 nM
//
ENTRY SMILES: C[C@@H](NC(=O)c1nc(-c2cccs2)cnc1N)c1nnc2ccc(-c3ccccc3)nn12
Ki: 250 to 2500 nM

# ---- query molecule ----
What measured Ki is associated with C[C@@H](NC(=O)c1nc(-c2ccc(CN3CCCC3)cc2)cnc1N)c1nnc2ccc(Nc3cccc(Cl)c3)nn12 on c-Met (Homo sapiens)?
≤ 250 nM

====

TARGET OR SYSTEM: c-Met (Homo sapiens)
REPORTED ENDPOINT: Ki

Some solved cases for reference:
COMPOUND: C[C@@H](NC(=O)c1nc(C#CCO)cnc1N)c1nnc2ccc(Nc3cccc(Cl)c3)nn12
Ki: ≤ 250 nM
--
COMPOUND: C[C@@H](NC(=O)c1nc(-c2ccncc2)cnc1N)c1nnc2ccc(Nc3cccc(Cl)c3)nn12
Ki: ≤ 250 nM
--
COMPOUND: C[C@@H](NC(=O)c1nc(C2CCCC2)cnc1N)c1nnc2ccc(Nc3cccc(Cl)c3)nn12
Ki: ≤ 250 nM
--
COMPOUND: C[C@@H](NC(=O)c1cnc2ccccc2n1)c1nnc2ccc(Nc3cccc(Cl)c3)nn12
Ki: 250 to 2500 nM
--
COMPOUND: CC(=O)Nc1ccc(-c2cnc(N)c(C(=O)N[C@H](C)c3nnc4ccc(Nc5cccc(Cl)c5)nn34)c2)cc1
Ki: ≤ 250 nM

What measured Ki is associated with CC(=O)Nc1ccc(-c2cnc(N)c(C(=O)N[C@H](C)c3nnc4ccc(Nc5cccc(Cl)c5)nn34)n2)cc1 on c-Met (Homo sapiens)?
≤ 250 nM

What measured Ki is associated with C[C@H](NC(=O)c1nc(-c2ccccc2)cnc1N)c1nnc2ccc(Nc3cccc(Cl)c3)nn12 on c-Met (Homo sapiens)?
250 to 2500 nM

What measured Ki is associated with C[C@@H](NC(=O)c1nc(-c2cnn(C)c2)cnc1N)c1nnc2ccc(Nc3cccc(Cl)c3)nn12 on c-Met (Homo sapiens)?
≤ 250 nM
